test system: M14 melanoma; experiment: NCI tumour cell line growth inhibition, 48 h
# TGI listing for each entry below
testReadout: TGI (µM)

>>> recordednumber("CC1C(=NO)C(C)C(c2ccccc2)N(N=O)C1c1ccccc1 (stereo unspecified)")
29.5
>>> recordednumber("O=Nc1c(-c2c(O)[nH]c3ccccc23)[nH]c2ccccc12")
25.9
>>> recordednumber("CCCc1cc(=O)oc2c(C=O)c(O)cc(O)c12")
52.7
>>> recordednumber("Cc1ccccc1[P+](C)(c1ccccc1C)c1ccccc1C")
41.1

---

Listing of recorded GI50 by entry.
test system: OVCAR-3 ovarian; assay: NCI tumour cell line growth inhibition, 48 h
testReadout: GI50

>>> result("CN[C@@H](C)C(=O)N[C@H]1CN(C(=O)CC(C)C)CC[C@H]2CC[C@@H](C(=O)NC(c3ccccc3)c3ccccc3)N2C1=O")
"> 89.7 µM"
>>> result("CCCCCCCCCCCCNC(=O)[C@H]1CSC(c2cc3ccccc3s2)N1 (stereo partly drawn)")
"3.79 µM"
>>> result("C[C@H](N)C(=O)N[C@@H]1[C@H]2C(=C(O)C[C@@H](O)[C@@H]2O)C(=O)O[C@]1(C)C(Cl)Cl")
"0.454 µM"

---

system: ACHN renal; test: NCI tumour cell line growth inhibition, 48 h; in the data active = GI50 below about 0.43 µM; inactive = the rest
Labels: TRUE = active, FALSE = inactive

>>> class("Cc1cccc(-c2nn3c(c2-c2ccnc4ccc(C(N)=O)cc24)CCC3)n1")
"FALSE"
>>> class("CCN1C(=O)N(CC)C2C1NN=c1s/c(=C\\c3ccccc3F)c(=O)n12 (stereo not drawn)")
"TRUE"
>>> class("O=C1/C(=C\\c2ccc(F)cc2)CN(C(=O)c2ccc([N+](=O)[O-])cc2)C/C1=C\\c1ccc(F)cc1")
"FALSE"
>>> class("Cc1ncc(C(=O)Nc2ccc(CN3CCN(C)CC3)c(C(F)(F)F)c2)cc1C#Cc1cnc(N)c2cnccc12")
"TRUE"
>>> class("C=C(C)[C@@H]1CC[C@]2(C(N)=O)CC[C@]3(C)[C@H](CC[C@@H]4[C@@]5(C)CC[C@H](O)C(C)(C)[C@@H]5CC[C@]43C)[C@@H]12")
"FALSE"
>>> class("C/C1=C/C(=O)O[C@@H]2C[C@@H](CC[C@H](C)/C=C\\C=C\\CC1)O[C@@](O)([C@@H]1CSC(=O)N1CO)C2")
"TRUE"
>>> class("CN(C)CCCNC(=O)c1ccc2oc3cc4ccccc4c(=O)n3c2c1")
"FALSE"
>>> class("CCCCCCCCCCCCNC(=O)[C@H]1CSC(c2cc3ccccc3s2)N1 (stereo partly drawn)")
"FALSE"

---

tested on: XF 498 CNS; test: NCI tumour cell line growth inhibition, 48 h
Known TGI of a selection of compounds
testReadout: TGI

>>> result("O=C(NCCO)c1cc2c(cn1)[nH]c1ccccc12")
"> 100 µM"
>>> result("CCSC(SCC)c1cc2c(cc1Br)OCO2")
"59.4 µM"
>>> result("C=CCCCn1ccc2ccccc21")
"> 100 µM"
>>> result("C#Cc1c(C)c(/C=C/C(C)=C/C=C/C(C)=C/C(=O)OC)n(C)c1C")
"> 100 µM"
>>> result("COc1ccc2c(c1O)C(=O)C(CCC(=O)O)CC2 (stereo not given)")
"> 100 µM"
>>> result("CCOC(=O)C[C@@H](C)[C@]1(C(=O)OC)CCCC1=O")
"> 100 µM"
>>> result("C[N+](C)(C)CC(=O)N/N=C(\\CCC(=O)NCCc1ccccc1)CC(=O)c1ccccc1")
"> 100 µM"
>>> result("O=c1c(-c2ccccc2)c2oc(c1-c1ccccc1)CS(=O)(=O)CCC2")
"24.7 µM"
>>> result("O=C1OC(c2ccccc2)=N/C1=C\\c1ccc2ccccc2c1")
"> 100 µM"
>>> result("O=C(O)C1=C(C(=O)Nc2ccccc2)C2C=CC1C2 (stereo not given)")
"> 100 µM"
